testSummary: gradient 5% acetonitrile 3 min, to 50% in 2 min, to 85% in 15 min, held 3 min, 100 µL/min
conditionParameters: column: Zorbax Extend-C18 2.1 x 50 mm; eluents: water / acetonitrile, 0.1% formic acid
Decision: RP-LC retention time compared against 900 s; not below it gives T, below it gives F.

compound: Cc1ccn2cc(-c3ccc(NC(=O)c4ccccc4I)cc3)nc2n1
classLabel: F
--
compound: CCC1CCCCN1CCCNC(=O)c1c(N2CCCC2=O)c2cc(OC)ccc2n1C (stereo not given)
classLabel: F
--
compound: CCc1ccc(S(=O)(=O)N2CCC(C(=O)NCc3csc(-c4cccs4)n3)CC2)cc1
classLabel: T
--
compound: Cc1nn(CC(=O)NC2CCCc3ccccc32)c(=O)c2c(C)n(-c3ccccc3)nc12 (stereo not given)
classLabel: T

---

testSummary: gradient 5% acetonitrile 3 min, to 50% in 2 min, to 85% in 15 min, held 3 min, 100 µL/min
conditionParameters: column: Zorbax Extend-C18 2.1 x 50 mm; eluents: water / acetonitrile, 0.1% formic acid

molecule: CC(C)(C)c1ccc(C(=O)N2CCc3nc[nH]c3C2)cc1
measurementUnit: s
RP-LC retention time: 634
//
molecule: Cc1cccc(OCC(=O)NC2CCN(Cc3c(C)noc3C)CC2)c1
measurementUnit: s
RP-LC retention time: 622
//
molecule: O=C(CCNc1c(-c2cccc(F)c2)nc2cnccn12)NCc1ccc(F)cc1F
measurementUnit: s
RP-LC retention time: 776
//
molecule: O=c1ccn(-c2cccc(F)c2)nc1-c1nc(-c2ccc3c(c2)OCO3)no1
measurementUnit: s
RP-LC retention time: 846
//
molecule: CCN(CC)c1nc2cc(C(=O)OC)ccc2c(=O)n1-c1ccc(C)c(C)c1
measurementUnit: s
RP-LC retention time: 1270
//
molecule: O=C(NCCOc1ccc(-c2ccccc2)nn1)c1ccc(=O)[nH]n1
measurementUnit: s
RP-LC retention time: 600
//
molecule: CCOC(=O)CNC(=O)C1CCN(c2ncccc2S(=O)(=O)N2CCCCC2)CC1
measurementUnit: s
RP-LC retention time: 784
//
molecule: Cc1ccc(C)c(-c2csc(Nc3ccc(Cl)cc3)n2)c1
measurementUnit: s
RP-LC retention time: 1340
//
molecule: CC(C)CNC(=O)CCn1c(=O)c2ccccc2n2c(=O)n(Cc3cccc(F)c3)nc12
measurementUnit: s
RP-LC retention time: 867
//
molecule: COc1ccc2[nH]c3c(c2c1)CCN(C(=O)CC(C)C)C31C(=O)N(C)c2ccccc21 (stereo not given)
measurementUnit: s
RP-LC retention time: 888
//
molecule: CCCN1C(=O)COc2ccc(-c3noc(C4CC(=O)N(c5ccc(C)cc5)C4)n3)cc21 (stereo not given)
measurementUnit: s
RP-LC retention time: 941
//
molecule: O=S(=O)(NCc1cccnc1-c1ccc(F)cc1)c1ccc(F)cc1
measurementUnit: s
RP-LC retention time: 737
//
molecule: CCCCn1cc(S(=O)(=O)Nc2cccc(C)c2)c2cccnc21
measurementUnit: s
RP-LC retention time: 976
//
molecule: CSc1ccc(-c2nc3ccc(Cl)cn3c2Nc2ccccc2C)cc1
measurementUnit: s
RP-LC retention time: 954
//
molecule: O=C(NC1CC1)[C@@H]1C[C@H](Oc2ccccc2)CN1C(=O)c1n[nH]c(=O)c2ccccc12
measurementUnit: s
RP-LC retention time: 685
//
molecule: CCc1ccc(C(=O)N2CCC3(CC2)N=C(c2ccc(C)cc2)NO3)cc1
measurementUnit: s
RP-LC retention time: 933
//
molecule: Cc1oc(-c2ccc(NC(=O)c3cccs3)cc2)nc1Cn1cccn1
measurementUnit: s
RP-LC retention time: 836
//
molecule: Cc1cccc(CC(=O)N2CCCn3cc(-c4cccc(C#N)c4)nc32)c1
measurementUnit: s
RP-LC retention time: 782
//
molecule: Cc1cccc(CNS(=O)(=O)c2cc3n(c2)CCCNC3=O)c1
measurementUnit: s
RP-LC retention time: 677
//
molecule: CCN(CC)S(=O)(=O)c1cc(-c2nnc(-c3ccc(C)cc3)o2)ccc1Cl
measurementUnit: s
RP-LC retention time: 1190
